- procedure text: Intrinsic clearance in rat liver microsomes
- Format: ADME
- assay setup: read-out: CLH
measure name: CLint scaled (mL/min/kg)

| smiles repr | endpoint unit | quantitative result |
| --- | --- | --- |
| CNCCNc1cc(N2CCN(C(=O)C(C)(C)c3ccccc3)CC2)nc2ccccc12 | mL/min/kg | 18 |
| CC(C)(C(=O)N1CCN(c2cc(NCCN)c3ccccc3n2)CC1)c1ccccc1 | mL/min/kg | 16.6 |

###

- procedure text: Cytotoxicity against human Hep2 cells measured after 6 days by CCK8 assay
- Format: cell-based, HEp-2
Let's look at some compounds and their measured CC50 at 144 h.

Take a look at these entries with their results.
| compound | CC50 at 144 h |
| --- | --- |
| CC(C)(C(=O)N1CCN(c2cc(NCCO)c3ccccc3n2)CC1)c1ccccc1 | > 100 µM |
| NCCNc1cc(N2CCN(C(=O)Cc3ccc(Cl)c(Cl)c3)CC2)nc2ccccc12 | 6.68 µM |
| COc1ccc(CC(=O)N2CCN(c3cc(NCCN)c4ccccc4n3)CC2)cc1 | > 100 µM |
| NCCNc1cc(N2CCN(C(=O)Cc3cc(F)cc(F)c3)CC2)nc2ccccc12 | > 100 µM |
| CCC(C(=O)N1CCN(c2cc(NCCN)c3ccccc3n2)CC1)c1ccccc1 (stereo not given) | > 100 µM |
| CN(C)CCNc1cc(N2CCN(C(=O)C(C)(C)c3ccccc3)CC2)nc2ccccc12 | 55.2 µM |
| NCC(O)CNc1cc(N2CCC(c3ccccc3)CC2)nc2ccccc12 (stereo not given) | 20.8 µM |
| CCC(=O)N1CCN(c2cc(NCCN)c3ccccc3n2)CC1 | > 100 µM |

CC50 at 144 h recorded for this compound, `NCCNc1cc(N2CCN(C(=O)Cc3cccc(Cl)c3)CC2)nc2ccccc12` , is > 100 µM

CC50 at 144 h recorded for this compound, `CC(C)(C(=O)N1CCN(c2cc(NCCN)c3ccccc3n2)CC1)c1ccccc1` , is > 100 µM

###

- procedure text: Clearance in Wistar rat at […], iv by LC-MS/MS analysis
- Assay type: ADME, organism-based
- assay setup: in vivo
measure name: clearance (mL/min/kg)

P. CC(C)(C(=O)N1CCN(c2cc(NCCN)c3ccccc3n2)CC1)c1ccccc1
Q. CNCCNc1cc(N2CCN(C(=O)C(C)(C)c3ccccc3)CC2)nc2ccccc12
-- ask Param pair: P , Q . Output: the one whose clearance is numerically greater. When you have decided, please share the label of that item.
-- reply P

###

- procedure text: Intrinsic clearance in human liver microsomes
- Assay type: ADME
- assay setup: read-out: CLH
measure name: CLint scaled (L/h/kg)

1. CC(C)(C(=O)N1CCN(c2cc(NCCN)c3ccccc3n2)CC1)c1ccccc1
2. CNCCNc1cc(N2CCN(C(=O)C(C)(C)c3ccccc3)CC2)nc2ccccc12
-- ask Given the listed items, does 1 or 2 have the lesser reported CLint scaled? When you have decided, please share the label of that item.
-- reply 2

###

- procedure text: Antiviral activity against Respiratory syncytial virus long A infected in human Hep2 cells assessed as reduction in virus-induced cytopathic effect measured after 6 days by CCK8 assay
- Format: functional, cell-based, Respiratory syncytial virus type A
- assay setup: HEp-2, 144 h
Let's look at some compounds and their measured pEC50.
Scale note: pEC50 = -log10(concentration in M).

| compound | quantitative result |
| --- | --- |
| CC(C)(C(=O)N1CCN(c2cc(NCCN)c3cc(Cl)ccc3n2)CC1)c1ccccc1 | 7.00 |

Could you now consider this next compound?
pEC50 recorded for this compound, `NCCNc1cc(N2CCN(C(=O)Cc3ccc(F)c(F)c3)CC2)nc2ccccc12` , is 6.59
